Target: T1, UNK ZnF1-6 (called full-length) (human, UniProt Q9C0B0 30-357)
T1 sequence: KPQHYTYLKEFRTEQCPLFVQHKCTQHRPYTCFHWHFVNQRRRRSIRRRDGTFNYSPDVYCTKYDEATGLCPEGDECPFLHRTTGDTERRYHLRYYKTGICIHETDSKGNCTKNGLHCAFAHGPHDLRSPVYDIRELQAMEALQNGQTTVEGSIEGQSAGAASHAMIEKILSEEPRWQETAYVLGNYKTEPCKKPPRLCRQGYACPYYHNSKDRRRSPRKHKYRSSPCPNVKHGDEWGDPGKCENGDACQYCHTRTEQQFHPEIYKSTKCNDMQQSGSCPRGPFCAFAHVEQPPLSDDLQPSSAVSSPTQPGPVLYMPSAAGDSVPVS
Test: nsRBNS (natural sequence RNA bind-n-seq); RBNS binding buffer (assumed for nsRBNS): 25 mM Tris pH 7.5, 150 mM KCl, 3 mM MgCl2, 0.01% Triton X-100, 500 ug/ml BSA, 20 U/ml SUPERase-In, 4 C; UNK is unkempt and MSI1 is Musashi-1; names of the RNAs are library labels; protein concentration not given here; high values mean tight binding
Over roughly 5,800 sequences, “enrichment r” has its median near 0.68; the highest 2% begin near 11. The list is a sample of the results.
Rule: binding signal of 0.5 enrichment R or more gives condition met; anything lower gives condition not met.

Previously resolved entries follow.
1) chr20:2117184:2117286:+|CDS|ENSG00000125834|unk|FALSE|unique (ssRNA) RNA: GGGAGUUCUACAGUCCGACGAUCGCUCCUGGGGACCUACAUUAAACAGGGGACUGAGAUCGUCCCUGUUGGUGAGGCGCUGCUAGAAAACCCAAAGAUGGAGUUGCACAUCCCCCAAAAACGCAGGACUUCCAUGUCUGAGGGCAACAGAGGAUUGAGCAUCA : condition met
2) chr8:93925380:93925481:+|3pUTR|ENSG00000164951|msi1|total|mutant (ssRNA) RNA: GGGAGUUCUACAGUCCGACGAUCAUUUAUUUCUAAAUGUUUUGACUGGGCAUUUUUCUUUUAAUGAAAUAUGUGGACUGCUCCCGCAAACCCUAUUUUCAGCUACUAUUUGAAUAUUCUUGAACACCACCACUGAAGAGUUUCCAACAGAGGAUUGAGCAUCA : condition met
3) chr2:69942770:69942871:+|3pUTR|ENSG00000059728|unk|total|mutant (ssRNA) RNA: GGGAGUUCUACAGUCCGACGAUCUGUUUCCAGAUGUUUCUUUAUGUAAAUAUGACGCCAAUGUAAAUCCUGUGUCAAGAUCACCGAGAAUGGUGCUUUUUACUACAGUCCGCACAUGCAUUUUCCGAAACUACUACAUGUUUUCAACAGAGGAUUGAGCAUCA : condition not met

[ask] # bool: binding signal of chr1:43978039:43978149:+|3pUTR|ENSG00000117410|unk|total|mutant (ssRNA) RNA: GGGAGUUCUACAGUCCGACGAUCGGCCGUGCCUCACUUUUAUUUAUUGCUGGUUUUCCUGGGACAGCUGGAGCUGUGUCCCUCCGCCUUUCAGAGGCUUGGUGUUCAGGGCCCUCCCUGCACUCCCCUCUUGCUGCGUGUUGACAACAGAGGAUUGAGCAUCA >= 0.5 enrichment R
[reply] condition met

[ask] # bool: binding signal of chr15:48879495:48879609:+|3pUTR|ENSG00000255302|msi1|total|mutant (ssRNA) RNA: GGGAGUUCUACAGUCCGACGAUCGACACUAAAUGUGUGUGAAUGUACAAAGAAAACAAACCAUUGCUUAUGCUGUUAUAUACCCGAGAAAUUUUGUUUUGCUUGCUGUUUUAACUUGACAGAUGAAGGACUUCCGUUGAACUUCAACAGAGGAUUGAGCAUCA >= 0.5 enrichment R
[reply] condition not met

[ask] # bool: binding signal of ENSG00000156976:stop:overlap|stop_codon|ENSG00000156976|stop_codon|NA|stop_codon (ssRNA) RNA: GGGAGUUCUACAGUCCGACGAUCCUUUGGUUAUAAAUUAUGAUCUACCUACCAAUCGUGAAAACUAUAUUCACAGGAGUCGAUAGCAGCAGUUGGUGACGAGAUGGCACUCAGAAACGGCGUUGACGUAAUUUAGGACGUGGACAACAGAGGAUUGAGCAUCA >= 0.5 enrichment R
[reply] condition met

Source of measurements: paper PMC12136788
